Data origin: patent US20250042994A1

# STUDY_TARGET: T1, Human CD19-his protein (human, UniProt P15391 20-291)
# T1 construct: bought protein; also called recombinant human CD19-His; CD19 full-length protein; not shown: His tag
# T1 sequence (looked up): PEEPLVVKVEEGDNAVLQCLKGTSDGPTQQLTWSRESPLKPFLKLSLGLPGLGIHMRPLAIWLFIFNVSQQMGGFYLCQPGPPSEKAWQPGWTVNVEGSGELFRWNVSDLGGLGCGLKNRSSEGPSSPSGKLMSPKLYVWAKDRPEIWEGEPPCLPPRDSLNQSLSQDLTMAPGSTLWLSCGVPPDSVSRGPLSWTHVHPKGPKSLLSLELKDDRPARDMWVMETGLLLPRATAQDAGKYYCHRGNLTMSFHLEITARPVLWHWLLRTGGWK
# PROTOCOL_DESCRIPTION: ELISA, coated human CD19-His
OD450 at 0.001 nM for assorted binders
The response must be a number in OD450 with no trailing unit.

BINDER: F3.121.4 (antibody, human IgG1, V domains shown, human-murine chimeric antibody, human IgG1 constant; also called chimeric antibody F3.121.4) VH: QVQLQQPGAELVVPGTSVKLSCKASGYTFTNYWMHWVKQRPGQGLEWIGEIDPSDNYANYNQEFQGKATLTVDKSSSTAYMQLSSLTSDDSAVYYCARHDGYFGALDYWGQGTSVTVSS VL: EIVLTQSPTTMAASPGEKITITCSASSSISSNYLHWYQQKPGFSPKFLIYRTSNLASGVPARFSGSGSGTSYSLTIGTMEAEDVATYYCQQASSIPRMFTFGSGTKLEIK
OD450 at 0.001 nM (OD450): 0.06
--
BINDER: F3.121.4-L1H1 (antibody, mouse IgG1, kappa, V domains shown, humanized antibody of F3.121.4, VL1+VH1, murine IgG1 constant regions) VH: EVQLVQSGAEVKKPGASVKVSCKASGYTFTNYWMHWVRQAPGQRLEWMGEIDPSDNYANYNQEFQGRVTITVDKSASTAYMELSSLRSEDTAVYYCARHDGYFGALDYWGQGTTVTVSS VL: EIVLTQSPATLSLSPGERATLSCSASSSISSNYLHWYQQKPGQAPRFLIYRTSNLASGIPARFSGSGSGTDFTLTISSLEPEDFAVYYCQQASSIPRMFTFGQGTKLEIKR
OD450 at 0.001 nM (OD450): 0.16
--
BINDER: F3.121.4-L2H2 (antibody, mouse IgG1, kappa, V domains shown, humanized antibody of F3.121.4, VL2+VH2, murine IgG1 constant regions) VH: EVQLVQSGAEVKKPGASVKVSCKASGYTFTNYWMHWVRQAPGQGLEWMGEIDPSDNYANYNQEFQGRVTITVDKSASTAYMELSSLRSEDTAVYYCARHDGYFGALDYWGQGTTVTVSS VL: EIVLTQSPDFQSVTPKEKVTITCSASSSISSNYLHWYQQKPDQSPKLLIKRTSNLASGVPSRFSGSGSGTDFTLTINSLEAEDAATYYCQQASSIPRMFTFGQGTKLEIKR
OD450 at 0.001 nM (OD450): 0.13
--
BINDER: F3.121.4-L1H2 (antibody, mouse IgG1, kappa, V domains shown, humanized antibody of F3.121.4, VL1+VH2, murine IgG1 constant regions) VH: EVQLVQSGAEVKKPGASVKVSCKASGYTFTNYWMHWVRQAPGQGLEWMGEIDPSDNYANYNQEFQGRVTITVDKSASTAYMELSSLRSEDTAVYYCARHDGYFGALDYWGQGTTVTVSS VL: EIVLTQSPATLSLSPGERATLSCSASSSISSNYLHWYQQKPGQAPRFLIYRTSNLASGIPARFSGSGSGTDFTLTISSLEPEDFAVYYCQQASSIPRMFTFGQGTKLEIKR
OD450 at 0.001 nM (OD450): 0.13
--
BINDER: F3.121.4-L3H2 (antibody, mouse IgG1, kappa, V domains shown, humanized antibody of F3.121.4, VL3+VH2, murine IgG1 constant regions) VH: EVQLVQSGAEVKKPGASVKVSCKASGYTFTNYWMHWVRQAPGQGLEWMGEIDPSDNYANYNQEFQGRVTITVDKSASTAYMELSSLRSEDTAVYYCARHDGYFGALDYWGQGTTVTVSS VL: EIVLTQSPDFQSVTPKEKVTITCSASSSISSNYLHWYQQKPDQSPKFLIYRTSNLASGVPSRFSGSGSGTDFTLTINSLEAEDAATYYCQQASSIPRMFTFGQGTKLEIKR
OD450 at 0.001 nM (OD450): 0.14
--
BINDER: F3.121.4-L3H1 (antibody, mouse IgG1, kappa, V domains shown, humanized antibody of F3.121.4, VL3+VH1, murine IgG1 constant regions) VH: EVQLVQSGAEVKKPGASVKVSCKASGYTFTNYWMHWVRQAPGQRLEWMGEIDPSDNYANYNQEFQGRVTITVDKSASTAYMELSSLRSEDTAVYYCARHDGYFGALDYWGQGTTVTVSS VL: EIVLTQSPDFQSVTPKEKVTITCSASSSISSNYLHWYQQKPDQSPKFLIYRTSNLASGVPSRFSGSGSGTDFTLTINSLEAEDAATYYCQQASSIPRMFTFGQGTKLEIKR
OD450 at 0.001 nM (OD450): 0.14

Then this binder:
Consider F3.121.4-L2H1 (antibody, mouse IgG1, kappa, V domains shown, humanized antibody of F3.121.4, VL2+VH1, murine IgG1 constant regions) VH: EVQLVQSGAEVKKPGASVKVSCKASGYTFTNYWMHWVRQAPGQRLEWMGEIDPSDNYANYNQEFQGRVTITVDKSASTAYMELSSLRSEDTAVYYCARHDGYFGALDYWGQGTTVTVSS VL: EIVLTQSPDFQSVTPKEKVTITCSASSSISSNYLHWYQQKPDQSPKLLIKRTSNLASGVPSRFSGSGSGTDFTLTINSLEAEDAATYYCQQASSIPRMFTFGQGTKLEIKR . Its measured OD450 at 0.001 nM is 0.13
